src = paper PMC9504950

# SYSTEM: L. amazonensis arginase (L-ARG) (Leishmania amazonensis)
# TEST_DETAILS: Kinetics of arginase inhibition (Dixon and Cornish-Bowden plots)
# Assay type: biochemical
# ASSAY_CONDITIONS: Dixon and Cornish-Bowden plots
OBSERVABLE: Mechanism of Inhibition

- O=C(CCc1ccc(O)c(O)c1)O[C@H](Cc1ccccc1)C(=O)O: Noncompetitive
- O=C(CCc1ccc(O)c(O)c1)O[C@H](Cc1ccc(O)cc1)C(=O)O: Noncompetitive
- O=C(CCc1ccc(O)c(O)c1)O[C@H](Cc1ccc(O)c(O)c1)C(=O)O: Noncompetitive
- O=C(O)CC(OC(=O)/C=C/c1ccc(O)c(O)c1)C(=O)O (centres unmarked): Noncompetitive
